tested.on: T1, AFP158/HLA-A*02:01 complex (human)
T1 construct: biotinylated on the BSP by BirA for ELISA and panning; also called biotinylated AFP158/HLA-A*02:01 complex; Bio-AFP158
experiment.notes: SPR, crude scFv captured;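 note: Peptide–MHC complex flowed at several concentrations over sensorchip-captured scFv, Kd derived from on- and off-rates obtained from the association and dissociation curves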
pKd: −log10 of the molar value.
Param threshold (6) applies to pKd; output rule met when value >= threshold, rule not met when value < threshold.

Example results:
binder	cat
AS170036 VL1VH1 HG56T (scFv) scFv: QSALTQPRSVSGSPGQSVTISCAGTSSDVGSENYVSWYQQHPGKAPKLMIYQVNKRASGVPDRFSGSKSGNTASLTISGLQAEDEADYYCASYRSSDHNIVFGGGTKLTVLGGGGSGGGGSGGGGSEVQLVESGGGLVQPGGSLRLSCAASGFTFSSYAMSWVRQAPGKGLEWVSTINSGTTSPYYADSVKGRFTISRDNSKNTLYLQMNSLRAEDTAVYYCAKNFFDGSWFLGPPAMDYWGQGTLVTVSSHHHHHH	rule met
AS170036 VL1VH1 HG56K (scFv) scFv: QSALTQPRSVSGSPGQSVTISCAGTSSDVGSENYVSWYQQHPGKAPKLMIYQVNKRASGVPDRFSGSKSGNTASLTISGLQAEDEADYYCASYRSSDHNIVFGGGTKLTVLGGGGSGGGGSGGGGSEVQLVESGGGLVQPGGSLRLSCAASGFTFSSYAMSWVRQAPGKGLEWVSTINSGTKSPYYADSVKGRFTISRDNSKNTLYLQMNSLRAEDTAVYYCAKNFFDGSWFLGPPAMDYWGQGTLVTVSSHHHHHH	rule met
AS170036 VL1VH1 HD102W (scFv) scFv: QSALTQPRSVSGSPGQSVTISCAGTSSDVGSENYVSWYQQHPGKAPKLMIYQVNKRASGVPDRFSGSKSGNTASLTISGLQAEDEADYYCASYRSSDHNIVFGGGTKLTVLGGGGSGGGGSGGGGSEVQLVESGGGLVQPGGSLRLSCAASGFTFSSYAMSWVRQAPGKGLEWVSTINSGTGSPYYADSVKGRFTISRDNSKNTLYLQMNSLRAEDTAVYYCAKNFFWGSWFLGPPAMDYWGQGTLVTVSSHHHHHH	rule not met
AS170036 VL1VH1 HF101Y (scFv) scFv: QSALTQPRSVSGSPGQSVTISCAGTSSDVGSENYVSWYQQHPGKAPKLMIYQVNKRASGVPDRFSGSKSGNTASLTISGLQAEDEADYYCASYRSSDHNIVFGGGTKLTVLGGGGSGGGGSGGGGSEVQLVESGGGLVQPGGSLRLSCAASGFTFSSYAMSWVRQAPGKGLEWVSTINSGTGSPYYADSVKGRFTISRDNSKNTLYLQMNSLRAEDTAVYYCAKNFYDGSWFLGPPAMDYWGQGTLVTVSSHHHHHH	rule met
AS170036 VL1VH1 HL107G (scFv) scFv: QSALTQPRSVSGSPGQSVTISCAGTSSDVGSENYVSWYQQHPGKAPKLMIYQVNKRASGVPDRFSGSKSGNTASLTISGLQAEDEADYYCASYRSSDHNIVFGGGTKLTVLGGGGSGGGGSGGGGSEVQLVESGGGLVQPGGSLRLSCAASGFTFSSYAMSWVRQAPGKGLEWVSTINSGTGSPYYADSVKGRFTISRDNSKNTLYLQMNSLRAEDTAVYYCAKNFFDGSWFGGPPAMDYWGQGTLVTVSSHHHHHH	rule not met
AS170036 VL1VH1 HD102L (scFv) scFv: QSALTQPRSVSGSPGQSVTISCAGTSSDVGSENYVSWYQQHPGKAPKLMIYQVNKRASGVPDRFSGSKSGNTASLTISGLQAEDEADYYCASYRSSDHNIVFGGGTKLTVLGGGGSGGGGSGGGGSEVQLVESGGGLVQPGGSLRLSCAASGFTFSSYAMSWVRQAPGKGLEWVSTINSGTGSPYYADSVKGRFTISRDNSKNTLYLQMNSLRAEDTAVYYCAKNFFLGSWFLGPPAMDYWGQGTLVTVSSHHHHHH	rule not met

Task: Check if pKd >= 6 (inclusive). Item: AS170036 VL1VH1 HL107V (scFv) scFv: QSALTQPRSVSGSPGQSVTISCAGTSSDVGSENYVSWYQQHPGKAPKLMIYQVNKRASGVPDRFSGSKSGNTASLTISGLQAEDEADYYCASYRSSDHNIVFGGGTKLTVLGGGGSGGGGSGGGGSEVQLVESGGGLVQPGGSLRLSCAASGFTFSSYAMSWVRQAPGKGLEWVSTINSGTGSPYYADSVKGRFTISRDNSKNTLYLQMNSLRAEDTAVYYCAKNFFDGSWFVGPPAMDYWGQGTLVTVSSHHHHHH
Result: rule not met

Task: Could you please find out whether AS170036 VL1VH1 HP109N (scFv) scFv: QSALTQPRSVSGSPGQSVTISCAGTSSDVGSENYVSWYQQHPGKAPKLMIYQVNKRASGVPDRFSGSKSGNTASLTISGLQAEDEADYYCASYRSSDHNIVFGGGTKLTVLGGGGSGGGGSGGGGSEVQLVESGGGLVQPGGSLRLSCAASGFTFSSYAMSWVRQAPGKGLEWVSTINSGTGSPYYADSVKGRFTISRDNSKNTLYLQMNSLRAEDTAVYYCAKNFFDGSWFLGNPAMDYWGQGTLVTVSSHHHHHH has pKd that meets 6 or exceeds it?
Result: rule not met
